Tested on: UACC-62 melanoma
Experiment: NCI-60 one-dose screen, 48 h (100 = growth as untreated, 0 = no growth, -100 = all killed)
Conditions: 10 µM unless noted
This is part of a sample that, as a whole, favours compounds with a hit. Of some 83,000 tested, about 20% had one in any assay. Active and inactive are the calls of the source. The calls were made as follows: active = growth percent below 10; inactive = the rest.
quantity name: growth

Requested field: growth. Item: O=C1CC(Sc2n[nH]c(-c3ccncc3)n2)C(=O)N1c1ccc(Br)cc1 (stereo not drawn) 96.9% (inactive)

Requested field: growth. Item: `N#Cc1c(-c2ccccc2Cl)cc(-c2ccc3ccccc3c2)[nH]c1=O` 52.7% (inactive)

Requested field: growth. Item: C=C1CC[C@@H]2[C@]3(C)COC(c4cn[nH]c4-c4ccc(OC)cc4)O[C@@H]3CC[C@@]2(C)[C@@H]1C/C=C1/C(=O)OCC1O (stereo partly drawn) -75.2% (active)

Requested field: growth. Item: `COc1ccc(/C=C2\C(=O)Nc3ccc(Cl)cc32)cc1OCc1ccccn1` 20.7% (inactive)

Requested field: growth. Item: CC1=C(C(=O)OCc2ccccc2)C(c2c(O)cc(O)cc2O)n2c(nc3ccccc32)N1 (stereo not drawn) 14.7% (inactive)

Requested field: growth. Item: `CC(C)c1ccc2c(N)c(C(=O)Nc3ccc(C(F)(F)F)cn3)sc2n1` 69.7% (inactive)

Requested field: growth. Item: `O=C(NNc1ccccc1)n1c(=O)c2ccccc2c(=O)n1-c1ccccc1` 91.2% (inactive)

Requested field: growth. Item: `O=c1onc(-c2cc3ccccc3nc2Cl)n1-c1cccc2ccccc12` 29.9% (inactive)

Requested field: growth. Item: CCOC(=O)C1=C(N)N(c2ccccc2)C2=C(C(=O)CC(C)(C)C2)C1c1ccc(Cl)cc1Cl (stereo not drawn) 27.2% (inactive)

Requested field: growth. Item: `COc1ccc(C(=O)/C=C/c2c(F)cccc2Cl)cc1S(N)(=O)=O` 15.4% (inactive)

Requested field: growth. Item: `COc1cc(OC)cc(C(=O)Nc2cccc(-c3cn(-c4ccc(S(N)(=O)=O)cc4)nn3)c2)c1` 80.4% (inactive)

Requested field: growth. Item: `COc1ccc(C2(SCCNCc3cc(N(C)C)ccn3)c3ccccc3C=Cc3ccccc32)cc1` 38% (inactive)

Requested field: growth. Item: CC1[C@H]2[C@H](C[C@H]3[C@@H]4CC=C5c6sc(Nc7ccccc7F)nc6CC[C@]5(C)[C@H]4CC[C@@]32C)O[C@]12CC[C@@H](C)CO2 (stereo partly drawn) -70.8% (active)

Requested field: growth. Item: `N#Cc1c(-c2ccc(Cl)cc2)nc2n[nH]c(-c3ccc(Cl)cc3)c2c1-c1ccc(C(F)(F)F)cc1` -58.6% (active)

Requested field: growth. Item: CC1(C)CC[C@]2(C(=O)O)CC[C@]3(C)C(=CCC4[C@@]5(C)C[C@@H](O)[C@@H]6OC(c7ccc(F)cc7)OC[C@@]6(C)C5CC[C@]43C)C2C1 (stereo partly drawn) 45.5% (inactive)

Requested field: growth. Item: CCN1C(=O)N(CC)C2NNC(Sc3c(C(=O)O)c4ccccc4n(C4CCCC4)c3=O)=NC21 (stereo not drawn) 47.4% (inactive)

Requested field: growth. Item: `Nc1n[nH]c2cccc(C#Cc3cccc(NC(=O)c4cccc(Cl)c4)c3)c12` 32.4% (inactive)

Requested field: growth. Item: `COC1=C[C@]23CCC(=O)N2CCc2cc4c(cc2[C@@H]3[C@@H]1OC(=O)[C@H](C)O)OCO4` 31.5% (inactive)
